# method-summary: Cmax in Beagle dog at 5 mg/kg, iv administered as single dose
# Type: ADME, organism-based, Canis lupus familiaris
# Parameters: dose 5 mg/kg, route intravenous
# assay-context: in vivo
measure-name: Cmax (µM)
# unit: µM | format: bare number

Ask: Quote Cmax reported for `Nc1nccc(-c2cc3c([nH]2)[C@@H](CCF)CNC3=O)n1` please.
Reply: 8.9

* * *

# assayed-system: Mast/stem cell growth factor receptor Kit (Homo sapiens)
# Sequence (P10721 whole entry): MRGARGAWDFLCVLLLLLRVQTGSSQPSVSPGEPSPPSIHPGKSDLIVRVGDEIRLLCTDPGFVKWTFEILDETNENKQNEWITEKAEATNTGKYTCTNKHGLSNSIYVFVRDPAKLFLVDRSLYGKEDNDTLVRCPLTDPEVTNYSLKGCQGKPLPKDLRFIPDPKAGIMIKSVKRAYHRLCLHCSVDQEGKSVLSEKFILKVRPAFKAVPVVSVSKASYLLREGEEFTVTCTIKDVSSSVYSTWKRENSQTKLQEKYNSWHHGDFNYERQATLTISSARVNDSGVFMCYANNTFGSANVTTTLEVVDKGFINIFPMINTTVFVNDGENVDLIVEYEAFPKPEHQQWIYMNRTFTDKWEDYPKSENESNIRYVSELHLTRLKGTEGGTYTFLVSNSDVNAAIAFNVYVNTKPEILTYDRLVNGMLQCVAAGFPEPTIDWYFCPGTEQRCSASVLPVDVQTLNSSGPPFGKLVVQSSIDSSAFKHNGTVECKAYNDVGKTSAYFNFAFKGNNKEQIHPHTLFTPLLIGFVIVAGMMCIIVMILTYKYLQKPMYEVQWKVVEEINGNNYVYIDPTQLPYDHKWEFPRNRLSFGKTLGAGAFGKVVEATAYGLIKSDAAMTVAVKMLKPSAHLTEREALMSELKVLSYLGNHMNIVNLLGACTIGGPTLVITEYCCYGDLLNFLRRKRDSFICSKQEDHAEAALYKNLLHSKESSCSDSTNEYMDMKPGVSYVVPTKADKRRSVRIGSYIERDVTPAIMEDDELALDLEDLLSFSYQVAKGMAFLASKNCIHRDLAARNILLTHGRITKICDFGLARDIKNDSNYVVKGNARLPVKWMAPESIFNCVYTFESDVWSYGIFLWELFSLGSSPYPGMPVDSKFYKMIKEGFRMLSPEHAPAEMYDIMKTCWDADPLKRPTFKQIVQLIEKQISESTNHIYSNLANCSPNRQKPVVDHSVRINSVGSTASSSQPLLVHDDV
pIC50: −log10 of the molar value.
measure-name: pIC50

Ask: Quote pIC50 reported for `Nc1nccc(-c2cc3c([nH]2)[C@@H](CCF)CNC3=O)n1` please.
Reply: < 5.40

* * *

# method-summary: Tmax in Beagle dog at 10 mg/kg, po administered as single dose
# Type: ADME, organism-based, Canis lupus familiaris
# Parameters: dose 10 mg/kg, route oral
# assay-context: in vivo
measure-name: Tmax (min)
# unit: min | format: bare number

Ask: Quote Tmax reported for `Nc1nccc(-c2cc3c([nH]2)[C@@H](CCF)CNC3=O)n1` please.
Reply: 18

* * *

# assayed-system: Vascular endothelial growth factor receptor 3 (Homo sapiens)
# Sequence (P35916 whole entry): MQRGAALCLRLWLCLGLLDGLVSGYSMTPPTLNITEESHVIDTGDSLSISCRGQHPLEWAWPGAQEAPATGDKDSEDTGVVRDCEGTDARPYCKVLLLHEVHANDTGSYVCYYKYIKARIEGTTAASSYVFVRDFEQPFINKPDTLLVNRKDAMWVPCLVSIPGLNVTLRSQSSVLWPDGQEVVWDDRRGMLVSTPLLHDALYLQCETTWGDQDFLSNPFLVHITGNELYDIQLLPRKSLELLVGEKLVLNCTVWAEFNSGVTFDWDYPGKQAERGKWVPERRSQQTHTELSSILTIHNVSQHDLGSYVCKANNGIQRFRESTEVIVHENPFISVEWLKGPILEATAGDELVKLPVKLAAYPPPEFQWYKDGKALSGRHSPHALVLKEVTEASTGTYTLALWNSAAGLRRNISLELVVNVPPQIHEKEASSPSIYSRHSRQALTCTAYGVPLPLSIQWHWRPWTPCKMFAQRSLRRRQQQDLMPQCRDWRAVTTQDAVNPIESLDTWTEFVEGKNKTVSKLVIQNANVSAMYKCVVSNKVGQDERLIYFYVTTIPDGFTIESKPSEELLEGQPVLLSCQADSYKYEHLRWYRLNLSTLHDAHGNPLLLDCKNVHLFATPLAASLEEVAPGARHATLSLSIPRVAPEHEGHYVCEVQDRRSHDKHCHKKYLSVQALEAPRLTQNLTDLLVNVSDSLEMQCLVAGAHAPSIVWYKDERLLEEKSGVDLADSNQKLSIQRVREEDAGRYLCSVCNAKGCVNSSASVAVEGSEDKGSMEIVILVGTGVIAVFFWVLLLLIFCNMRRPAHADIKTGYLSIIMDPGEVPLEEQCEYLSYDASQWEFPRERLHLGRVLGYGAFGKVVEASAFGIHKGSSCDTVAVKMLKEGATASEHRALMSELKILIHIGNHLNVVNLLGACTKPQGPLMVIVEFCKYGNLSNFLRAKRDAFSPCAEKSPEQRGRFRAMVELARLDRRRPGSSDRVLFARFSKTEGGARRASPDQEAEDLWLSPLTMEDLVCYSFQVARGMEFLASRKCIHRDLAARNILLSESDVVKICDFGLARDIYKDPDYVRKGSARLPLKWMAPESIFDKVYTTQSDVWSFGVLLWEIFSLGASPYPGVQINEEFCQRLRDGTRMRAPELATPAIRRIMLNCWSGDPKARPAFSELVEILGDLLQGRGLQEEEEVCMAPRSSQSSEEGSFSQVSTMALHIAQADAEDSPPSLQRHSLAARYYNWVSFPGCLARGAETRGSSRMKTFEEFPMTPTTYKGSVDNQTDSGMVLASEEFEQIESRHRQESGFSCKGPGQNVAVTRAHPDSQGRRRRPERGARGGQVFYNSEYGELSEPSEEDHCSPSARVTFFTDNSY
measure-name: IC50

Ask: Give measured IC50 for `Nc1nccc(-c2cc3c([nH]2)[C@@H](CCF)CNC3=O)n1` (Vascular endothelial growth factor receptor 3 (Homo sapiens)).
Reply: > 4 µM

* * *

# assayed-system: Cyclin-dependent kinase 4 (Homo sapiens, UniProt P11802)
# Sequence (P11802 whole entry): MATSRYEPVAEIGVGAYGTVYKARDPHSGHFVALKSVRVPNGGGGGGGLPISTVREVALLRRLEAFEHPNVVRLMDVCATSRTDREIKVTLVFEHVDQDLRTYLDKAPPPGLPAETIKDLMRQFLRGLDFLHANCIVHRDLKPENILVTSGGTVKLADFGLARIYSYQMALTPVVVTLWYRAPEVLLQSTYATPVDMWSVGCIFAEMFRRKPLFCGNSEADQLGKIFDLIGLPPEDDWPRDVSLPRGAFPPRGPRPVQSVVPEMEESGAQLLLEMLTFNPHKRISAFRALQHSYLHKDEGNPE
measure-name: IC50

Ask: Give measured IC50 for `Nc1nccc(-c2cc3c([nH]2)[C@@H](CCF)CNC3=O)n1` (Cyclin-dependent kinase 4 (Homo sapiens, UniProt P11802)).
Reply: > 4 µM

* * *

# assayed-system: Hepatocyte growth factor receptor (Homo sapiens)
# Sequence (P08581 whole entry): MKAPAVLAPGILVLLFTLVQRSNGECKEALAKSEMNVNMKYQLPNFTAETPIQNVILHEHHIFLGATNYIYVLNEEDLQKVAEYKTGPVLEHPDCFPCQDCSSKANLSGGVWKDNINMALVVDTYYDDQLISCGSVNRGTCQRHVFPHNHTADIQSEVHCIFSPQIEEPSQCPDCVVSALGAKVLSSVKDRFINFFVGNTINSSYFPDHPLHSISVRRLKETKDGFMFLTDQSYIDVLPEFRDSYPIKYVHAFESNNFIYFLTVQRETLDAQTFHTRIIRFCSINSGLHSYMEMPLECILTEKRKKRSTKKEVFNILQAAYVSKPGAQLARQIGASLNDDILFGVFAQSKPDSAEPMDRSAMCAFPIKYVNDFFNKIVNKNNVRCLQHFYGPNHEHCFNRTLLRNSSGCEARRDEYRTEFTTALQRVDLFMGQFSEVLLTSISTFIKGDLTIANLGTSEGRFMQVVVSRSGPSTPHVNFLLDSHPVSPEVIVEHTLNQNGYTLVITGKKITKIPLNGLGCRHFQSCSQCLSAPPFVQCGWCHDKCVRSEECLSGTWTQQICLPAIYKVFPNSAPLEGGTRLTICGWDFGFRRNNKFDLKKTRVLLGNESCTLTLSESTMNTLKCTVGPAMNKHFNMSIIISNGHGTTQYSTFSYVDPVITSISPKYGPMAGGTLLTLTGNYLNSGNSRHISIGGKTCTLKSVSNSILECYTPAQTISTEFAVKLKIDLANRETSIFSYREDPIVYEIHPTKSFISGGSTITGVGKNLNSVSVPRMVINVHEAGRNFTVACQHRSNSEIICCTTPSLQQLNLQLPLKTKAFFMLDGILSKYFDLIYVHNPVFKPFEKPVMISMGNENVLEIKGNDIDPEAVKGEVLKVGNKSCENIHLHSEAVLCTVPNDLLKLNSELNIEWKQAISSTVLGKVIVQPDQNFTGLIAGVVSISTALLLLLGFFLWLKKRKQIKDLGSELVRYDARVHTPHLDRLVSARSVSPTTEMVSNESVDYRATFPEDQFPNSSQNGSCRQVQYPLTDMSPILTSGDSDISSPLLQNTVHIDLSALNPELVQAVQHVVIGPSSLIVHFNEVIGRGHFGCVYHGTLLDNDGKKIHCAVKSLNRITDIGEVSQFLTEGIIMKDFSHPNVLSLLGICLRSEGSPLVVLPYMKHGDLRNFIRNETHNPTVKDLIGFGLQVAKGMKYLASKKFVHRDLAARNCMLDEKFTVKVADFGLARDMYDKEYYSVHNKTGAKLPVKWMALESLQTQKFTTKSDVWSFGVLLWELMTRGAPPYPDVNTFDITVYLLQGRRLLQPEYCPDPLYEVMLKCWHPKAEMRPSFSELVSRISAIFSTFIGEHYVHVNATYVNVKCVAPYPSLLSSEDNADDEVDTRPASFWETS
measure-name: IC50

Ask: Quote IC50 reported for `Nc1nccc(-c2cc3c([nH]2)[C@@H](CCF)CNC3=O)n1` please.
Reply: > 4 µM

* * *

# method-summary: Renal clearance in Wistar rat at 10 mg/kg, iv administered as single dose
# Assay type: ADME, organism-based, Kidney
# Set-up: dose 10 mg/kg, route intravenous
# assay-context: in vivo, read-out: CL_renal (converted)
measure-name: CL renal (mL/min/kg)
# unit: mL/min/kg | format: bare number

Ask: Quote CL renal reported for `Nc1nccc(-c2cc3c([nH]2)[C@@H](CCF)CNC3=O)n1` please.
Reply: 18.3

* * *

# method-summary: Cmax in nu/nu mouse at 10 mg/kg, iv administered as single dose
# Assay type: ADME, organism-based
# Design: dose 10 mg/kg, route intravenous
# assay-context: in vivo
measure-name: Cmax (µM)
# unit: µM | format: bare number

1. Nc1nccc(-c2cc3c([nH]2)C(CCC(F)(F)F)CNC3=O)n1 (stereo in doubt; 93-2); 13.6
2. CCC1CNC(=O)c2cc(-c3ccnc(N)n3)[nH]c21 (stereo in doubt; 86-1); 12.6

Switching to the query record.
Ask: Quote Cmax reported for `Nc1nccc(-c2cc3c([nH]2)[C@@H](CCF)CNC3=O)n1` please.
Reply: 20.3

* * *

# method-summary: Tmax in Wistar rat at 20 mg/kg, po administered as single dose
# assay-context: in vivo
measure-name: Tmax
Write the numeric value and follow it with the unit.

Ask: Quote Tmax reported for `Nc1nccc(-c2cc3c([nH]2)[C@@H](CCF)CNC3=O)n1` please.
Reply: 18 min

* * *

# assayed-system: Protein kinase C beta type (Homo sapiens, UniProt P05771)
# Sequence (P05771 whole entry): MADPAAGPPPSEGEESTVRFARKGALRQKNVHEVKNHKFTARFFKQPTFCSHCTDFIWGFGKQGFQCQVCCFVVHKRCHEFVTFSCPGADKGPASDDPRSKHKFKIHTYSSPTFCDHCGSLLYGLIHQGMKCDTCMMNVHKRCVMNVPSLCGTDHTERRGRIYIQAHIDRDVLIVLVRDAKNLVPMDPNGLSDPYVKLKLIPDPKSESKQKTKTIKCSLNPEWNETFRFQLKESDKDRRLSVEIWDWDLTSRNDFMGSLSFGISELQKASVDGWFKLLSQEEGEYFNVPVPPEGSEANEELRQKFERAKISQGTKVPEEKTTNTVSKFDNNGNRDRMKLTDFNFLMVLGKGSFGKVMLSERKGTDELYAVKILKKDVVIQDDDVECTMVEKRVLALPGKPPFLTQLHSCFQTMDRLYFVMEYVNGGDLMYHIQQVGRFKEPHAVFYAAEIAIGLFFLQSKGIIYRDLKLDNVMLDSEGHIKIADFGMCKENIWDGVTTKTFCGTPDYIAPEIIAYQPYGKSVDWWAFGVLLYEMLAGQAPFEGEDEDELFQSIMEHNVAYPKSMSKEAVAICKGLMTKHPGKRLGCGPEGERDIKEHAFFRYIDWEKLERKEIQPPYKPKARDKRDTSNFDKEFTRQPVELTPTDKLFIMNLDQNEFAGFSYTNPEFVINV
measure-name: IC50

Ask: Give measured IC50 for `Nc1nccc(-c2cc3c([nH]2)[C@@H](CCF)CNC3=O)n1` (Protein kinase C beta type (Homo sapiens, UniProt P05771)).
Reply: 1150 nM
